Experimental System: UniProt Q9WTR4
Method Description: Inhibition of noradrenaline uptake in rat synaptosomal fraction
pIC50: −log10 of the molar value.
pIC50 below 8 gives -1; pIC50 at or above it gives 1.

Example entries begin here.
| Compound | Assigned Class |
| --- | --- |
| CN(C)C1CC(c2ccc(F)cc2)c2ccc(C(F)(F)F)cc21 (stereo in doubt; 57) | -1 |
| CNC1CC(c2ccc(Cl)c(Cl)c2)c2ccc(O)cc21 (stereo in doubt; 54) | 1 |
| CN(C)C1CC(c2ccc(Br)cc2)c2ccccc21 (stereo in doubt; 37) | -1 |

Ask | Determine whether measured pIC50 meets or exceeds 8 for CNC1CC(c2ccccc2)c2ccccc21 (stereo not given)
Reply | -1

Ask | Kindly determine if pIC50 recorded for CNC1CC(c2ccc(F)cc2)c2ccccc21.Cl (stereo in doubt; 32) is above or exactly 8.
Reply | 1

Ask | Is the recorded value of pIC50 equal to or greater than 8 for this compound? CNC1CC(c2cccc(Cl)c2)c2ccccc21.Cl (stereo in doubt; 39)
Reply | 1

Ask | Quick check, pIC50 >= 8? CN(C)C1CC(c2ccc(F)cc2)c2ccc(F)cc21.Cl (stereo not given)
Reply | -1

###

Species: Mus musculus
Method Description: Antagonistic activity against tetrabenazine-induced ptosis in mice.
Assay type: functional
Kindly apply the following: Y if ED50 is less than 30 µmol/kg, N in every other case.

Examples from the recorded data:
| Compound | Assigned Class |
| --- | --- |
| CNC1CC(c2ccc(Cl)cc2Cl)c2ccccc21.Cl (stereo in doubt; 74) | N |
| CNC1CC(c2ccc(Cl)cc2)c2ccccc21 (stereo not given) | N |
| CNC1CC(c2ccc(Cl)cc2)c2ccccc21.Cl (stereo not given) | N |
| CN(C)C1CC(c2cccc(Cl)c2)c2ccccc21.Cl (stereo in doubt; 40) | Y |
| CCCNC1CC(c2ccc(Cl)c(Cl)c2)c2ccccc21.Cl (stereo in doubt; 87) | N |
| CN(C)C1CC(c2ccc(Br)cc2)c2ccccc21 (stereo in doubt; 65) | Y |

Now consider a different compound.
Ask | Hello, I'm reviewing records and need to know if ED50 of CN(C)C1CC(c2ccc(F)c(Cl)c2)c2ccccc21.Cl (stereo in doubt; 71) is below 30 µmol/kg. Could you check?
Reply | Y

###

Organism: Mus musculus
Method Description: Antagonistic activity against 5-HTP induced potentiation in mice
Format: functional
Each entry below lists one item and its recorded log10(ED50) value.
In plain terms, each number is the log10 of measured ED50 in µmol/kg.

// below: answered compounds
| Compound | log10(ED50) |
| --- | --- |
| CNC1CC(c2ccc(Cl)c(Cl)c2)c2ccc(F)cc21 (stereo in doubt; 76) | 1.18 |
| CN(C)C1CC(c2ccc(Cl)cc2Cl)c2ccccc21 (stereo in doubt; 75) | 1.28 |

Ask | Please look up its log10(ED50): CN(C)C1CC(c2ccc(Cl)cc2Cl)c2ccccc21 (stereo in doubt; 49)
Reply | 1.28

Ask | Looking for the measured log10(ED50) of CCN(CC)C1CC(c2ccc(Cl)c(Cl)c2)c2ccccc21 (stereo in doubt; 85) , can you help?
Reply | 1.28

Ask | Using the record for CN(C)C1CC(c2ccc(Cl)cc2)c2ccccc21 (stereo in doubt; 63) , report its log10(ED50).
Reply | 1.15

Ask | Request the reported log10(ED50) associated with CNC1CC(c2ccc(C(F)(F)F)cc2)c2ccccc21 (stereo not drawn)
Reply | 1.65

Ask | Please report the recorded log10(ED50) for CNC1CC(c2ccc(Cl)cc2Cl)c2ccccc21 (stereo in doubt; 74) .
Reply | 1.85

Ask | Name the reported log10(ED50) value associated with the compound Clc1ccc(C2CC(NCc3ccccc3)c3ccccc32)cc1Cl (stereo in doubt; 93)
Reply | 1.67

Ask | For CNC1CC(c2ccc(F)c(F)c2)c2ccccc21 (stereo in doubt; 68) , what is its reported log10(ED50)?
Reply | 1.80

Ask | Which log10(ED50) reading was recorded for the compound CN(C)C1CC(c2ccc(Br)cc2)c2ccccc21 (stereo in doubt; 65) ?
Reply | 1.08

Ask | Entry CNC1CC(c2ccc(Cl)c(C(F)(F)F)c2)c2ccccc21 (stereo not drawn) : reported log10(ED50) = ?
Reply | 1.74

Ask | Data request, read-out log10(ED50), for CNC1CC(c2ccc(Br)cc2)c2ccccc21 (stereo in doubt; 36)
Reply | 0.94

Ask | Using the record for CN(C)C1CC(c2ccc(Cl)cc2)c2ccccc21 (stereo in doubt; 35) , report its log10(ED50).
Reply | 1.68

Ask | Can you look up the measured log10(ED50) of CNC1CC(c2ccc(F)c(F)c2)c2ccccc21 (stereo in doubt; 41) for me?
Reply | 1.34

Ask | Fill blank: measured log10(ED50) of the compound CNC1CC(c2ccc(F)c(Cl)c2)c2ccccc21 (stereo in doubt; 43) is ____.
Reply | 1.67

Ask | # get_value(readout='log10(ED50)', item= CN(C)C1CC(c2cccc(Cl)c2)c2ccccc21 (stereo in doubt; 67) )
Reply | 1.89

Ask | Reported log10(ED50), compound CN(C)C1CC(c2ccc(F)c(Cl)c2)c2ccccc21 (stereo in doubt; 71) : ____
Reply | 1.71

Ask | Report log10(ED50) for CN(C)C1CC(c2ccc(F)c(Cl)c2)c2ccccc21 (stereo in doubt; 44) please.
Reply | 1.57

###

The entries below come with measured pIC50 values attached.
Experimental System: UniProt:P31652
Sequence (P31652 whole entry): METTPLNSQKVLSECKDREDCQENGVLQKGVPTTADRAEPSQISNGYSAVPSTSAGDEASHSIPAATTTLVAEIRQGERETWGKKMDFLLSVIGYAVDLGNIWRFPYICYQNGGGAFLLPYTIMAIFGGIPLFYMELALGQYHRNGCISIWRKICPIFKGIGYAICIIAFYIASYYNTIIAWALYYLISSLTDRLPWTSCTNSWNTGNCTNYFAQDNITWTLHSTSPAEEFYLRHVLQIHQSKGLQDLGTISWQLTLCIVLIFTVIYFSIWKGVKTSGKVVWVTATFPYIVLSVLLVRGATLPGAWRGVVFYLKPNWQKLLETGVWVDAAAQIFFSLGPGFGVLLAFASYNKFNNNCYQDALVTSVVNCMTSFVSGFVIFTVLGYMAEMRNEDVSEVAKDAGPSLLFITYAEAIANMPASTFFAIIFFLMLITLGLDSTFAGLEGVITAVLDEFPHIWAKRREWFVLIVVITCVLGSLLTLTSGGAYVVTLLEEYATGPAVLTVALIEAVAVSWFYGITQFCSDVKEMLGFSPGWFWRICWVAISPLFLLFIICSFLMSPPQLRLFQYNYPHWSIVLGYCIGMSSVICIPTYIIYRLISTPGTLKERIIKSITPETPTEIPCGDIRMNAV
Method Description: Inhibition of 5-HT uptake in rat synaptosomal fraction
Scale: negative log10 of molar concentration, which is what pIC50 denotes.

| Compound | Val |
| --- | --- |
| CNC1CC(c2ccc(F)cc2)c2ccccc21.Cl (stereo in doubt; 32) | 7.12 |

Ask | Would you kindly share the measured pIC50 for CN(C)C1CC(c2ccc(F)cc2)c2ccc(F)cc21.Cl (stereo not given) ?
Reply | 7.74

Ask | I have this compound here, CN(C)C1CC(c2ccc(Cl)c(Cl)c2)c2ccccc21 (stereo not given) , and I need its recorded pIC50.
Reply | 9.19

Ask | Requested field: pIC50. Item: CNC1CC(c2ccc(Cl)cc2)c2ccccc21 (stereo not given)
Reply | 8.40

Ask | What value of pIC50 has been recorded for this entry: CNCCCC1(c2ccccc2)SC(C)(C)c2ccccc21 (stereo not given)
Reply | 6.07

Ask | Recorded pIC50 for CCCNC1CC(c2ccc(Cl)c(Cl)c2)c2ccccc21.Cl (stereo in doubt; 87) , please?
Reply | 6.82

###

Species: Mus musculus
Method Description: Antagonistic activity against tetrabenazine-induced ptosis in mice.
Assay type: functional
Measurement Conditions: Mus musculus; read-out: ED50
# ED50 annotations

| Compound | Val |
| --- | --- |
| CNC1CC(c2ccc(Cl)c(C(F)(F)F)c2)c2ccccc21 (configuration not stated) | > 110 µmol/kg |
| CN(C)C1CC(c2ccc(Cl)c(Cl)c2)c2ccc(F)cc21 (stereo in doubt; 51) | > 111 µmol/kg |
| Clc1ccc(C2CC(N3CCCCC3)c3ccccc32)cc1Cl (stereo in doubt; 100) | > 104 µmol/kg |
| OCCNC1CC(c2ccc(Cl)c(Cl)c2)c2ccccc21 (configuration not stated) | > 111 µmol/kg |
| CNC1CC(c2ccccc2)c2ccccc21 (configuration not stated) | > 154 µmol/kg |
| Clc1ccc(C2CC(N3CCCC3)c3ccccc32)cc1Cl (stereo in doubt; 97) | > 108 µmol/kg |

Ask | What does the record list as ED50 for CCCNC1CC(c2ccc(Cl)c(Cl)c2)c2ccccc21 (stereo in doubt; 88) ?
Reply | > 112 µmol/kg

###

Experimental System: Norepinephrine transporter (Rattus norvegicus, UniProt Q9WTR4)
Sequence (Q9WTR4 whole entry): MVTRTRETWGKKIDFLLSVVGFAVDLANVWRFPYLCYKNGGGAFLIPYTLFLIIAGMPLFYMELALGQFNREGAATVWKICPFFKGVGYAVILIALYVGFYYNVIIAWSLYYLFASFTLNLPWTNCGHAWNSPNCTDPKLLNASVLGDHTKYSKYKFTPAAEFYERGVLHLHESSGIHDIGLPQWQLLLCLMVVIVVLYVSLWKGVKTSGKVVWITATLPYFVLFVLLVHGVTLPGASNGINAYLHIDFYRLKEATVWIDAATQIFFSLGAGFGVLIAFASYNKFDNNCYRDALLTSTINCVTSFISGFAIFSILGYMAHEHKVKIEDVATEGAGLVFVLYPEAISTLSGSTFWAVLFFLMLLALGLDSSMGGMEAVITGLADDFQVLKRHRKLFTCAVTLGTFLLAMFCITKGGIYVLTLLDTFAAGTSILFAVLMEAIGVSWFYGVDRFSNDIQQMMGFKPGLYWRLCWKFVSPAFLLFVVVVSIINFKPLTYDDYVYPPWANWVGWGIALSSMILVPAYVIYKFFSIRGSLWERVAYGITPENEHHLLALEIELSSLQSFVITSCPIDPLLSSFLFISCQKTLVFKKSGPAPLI
Method Description: Inhibition of noradrenaline uptake in rat synaptosomal fraction
Assay type: functional
Endpoint Label: IC50 (nM)
Number in nM, nothing else.

| Molecule | Val |
| --- | --- |
| CN(C)C1CC(c2cccc(Cl)c2)c2ccccc21.Cl (stereo in doubt; 40) | 15 |

Ask | What value of measured IC50 is listed for CNC1CC(c2ccc(Cl)cc2Cl)c2ccccc21.Cl (stereo in doubt; 48) ?
Reply | 15

Ask | Could you share which IC50 value was measured for CCN(CC)C1CC(c2ccc(Cl)c(Cl)c2)c2ccccc21.Cl (stereo in doubt; 86) ?
Reply | 13

Ask | Requested read-out: IC50. Entry: CNC1CC(c2ccc(Cl)cc2Cl)c2ccccc21.Cl (stereo in doubt; 74)
Reply | 6.1

###

Experimental System: Sodium-dependent dopamine transporter (Rattus norvegicus, UniProt P23977)
Sequence (P23977 whole entry): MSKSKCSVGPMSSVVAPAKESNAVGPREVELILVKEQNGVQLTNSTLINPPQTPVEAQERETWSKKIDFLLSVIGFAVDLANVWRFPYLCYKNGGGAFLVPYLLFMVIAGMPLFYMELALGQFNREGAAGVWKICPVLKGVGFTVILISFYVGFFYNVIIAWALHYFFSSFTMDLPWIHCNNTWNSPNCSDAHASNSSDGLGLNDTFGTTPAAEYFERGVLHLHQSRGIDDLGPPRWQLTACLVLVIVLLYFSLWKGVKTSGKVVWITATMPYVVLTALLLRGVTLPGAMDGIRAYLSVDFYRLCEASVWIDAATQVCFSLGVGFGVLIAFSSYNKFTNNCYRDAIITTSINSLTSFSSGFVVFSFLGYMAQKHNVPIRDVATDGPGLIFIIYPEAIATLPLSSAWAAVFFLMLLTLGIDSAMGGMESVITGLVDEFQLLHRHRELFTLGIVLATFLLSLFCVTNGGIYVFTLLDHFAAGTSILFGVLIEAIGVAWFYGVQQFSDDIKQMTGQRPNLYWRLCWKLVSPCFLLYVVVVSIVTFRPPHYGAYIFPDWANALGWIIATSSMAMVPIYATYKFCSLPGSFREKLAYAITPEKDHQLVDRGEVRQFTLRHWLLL
Method Description: Inhibition of dopamine uptake in rat synaptosomal fraction
pIC50: −log10 of the molar value.
Lab note: class by pIC50, see small value: < 7; mid value: ≥ 7 and < 8; large value: ≥ 8

Examples with answers:
| Molecule | Assigned Class |
| --- | --- |
| CNC1CC(c2ccc(Cl)c(Cl)c2)c2ccc(OC)cc21.Cl (stereo not drawn) | mid value |
| CN1CCN(C2CC(c3ccc(Cl)c(Cl)c3)c3ccccc32)CC1 (single isomer, unassigned; (+)-101) | small value |
| CN(C)C1CC(c2cccc(Cl)c2)c2ccccc21.Cl (stereo in doubt; 67) | mid value |
| CNC1CC(c2ccc(Cl)c(Cl)c2)c2ccc(O)cc21 (stereo in doubt; 54) | large value |
| CNCCCC1(c2ccccc2)OC(C)(C)c2ccccc21 (stereo not drawn) [TALOPRAM] | small value |

Kindly consider the entry below.
Ask | Could you place CNC1CC(c2ccc(Br)cc2)c2ccccc21 (stereo in doubt; 36) in its proper category? Many thanks.
Reply | large value
